Where do these numbers come from? They come from ChEMBL document CHEMBL4513216.

Overview of recorded cytotoxicity at 10 µM for various compounds
# METHOD DESCRIPTION: Toxicity liver stage against HepG2, at 10uM
# Type: cell-based
# Design: test concentration 10 uM, cell line HepG2-A16-CD81EGFP
# CONDITION CONTEXT: human, HepG2-A16-CD81EGFP cells; read-out: INHIBITION
PROPERTY MEASURED: cytotoxicity at 10 µM (%)

>>> print(df.to_string())
                                    compound  u     val
 0        Cc1csc(N2CCCN(C(=O)Cn3cncn3)CC2)n1  %   -3.27
 1  CCC[C@@H]1CN(Cc2c[nH]nc2-c2ccc(OC)cc2)C[C@H]1NC(C)=O  %  -0.566
 2  Cc1cc(=O)n2ncnc2n1CC(O)c1ccccc1 (centres undefined)  %   -7.82
 3  Cc1cc(C(=O)N(C)C2CCS(=O)(=O)C2)c2ccc(F)cc2n1 (centres undefined)  %   -9.59
 4  CC(NCCCC#N)c1ccc(-c2ccncc2)cc1 (centres undefined)  %   -1.93
 5            CCOc1nnc(CN(CC)CC(=O)NC(C)C)s1  %    3.88
 6  COc1ccc(C(C)NCc2cscn2)cc1Cn1cccn1 (centres undefined)  %    3.01
 7  O=C(NCC1CCOC1)N1CCN(Cc2ccc3c(c2)OCO3)CC1 (centres undefined)  %   -4.33
 8    CN(C)C(=O)COCc1cncc2c1CCN(Cc1ccccc1)C2  %   -4.24
 9  CN(C(=O)CNC(=O)CC(C)(C)C)C1CCN(c2ccccn2)CC1  %    13.9
10  CC1CCc2nc(O)c(C(=O)NCc3cccc(F)c3)cc2C1 (centres undefined)  %    3.43
11  O=S(=O)(NCCC(O)c1cccs1)c1ccccc1Cl (centres undefined)  %    1.87
12  CCc1nc(N2CCCC(CCCOC)C2)c2cnn(C)c2n1 (centres undefined)  %    6.46
13  CCOC(=O)C1CCN(C(=O)CN2CCCC2Cc2ccccc2)CC1 (centres undefined)  %    12.7
14              Cc1ccc(CN(C)C(=O)c2cnsn2)cc1  %   -16.4
15   CC(C)(C)OC(=O)NC(C)(C)c1noc(Cn2ccnc2)n1  %    8.73
16  Cc1cnccc1CN1Cc2ccccc2OC2(CCC(CO)CC2)C1 (centres undefined)  %   -8.83
17   Cc1ccccc1CS(=O)(=O)CC(=O)N(C)Cc1ccccc1F  %  -0.969
18  CCc1nccn1C1CCCN(C(=O)Cc2ccc(OC)c(F)c2)C1 (centres undefined)  %   -3.59
19  CC(C)(O)C1CCCN(C(=O)Nc2nc(-c3ccccc3)ns2)C1 (centres undefined)  %    -137
20  CC(C)(C)CN1CCOC[C@H]1c1nc(-c2cccc(F)c2)c[nH]1  %   -3.79
21  Cc1ccc(C)c(OC2CCN(C(=O)c3ccc(C)[nH]c3=O)CC2)c1  %    2.87
22  COc1ccc(F)cc1S(=O)(=O)N1CCC(Oc2ccc(Cl)cn2)CC1  %    8.05
23  CC(NC(=O)NCc1ccoc1)c1ccc2c(c1)CCC(=O)N2 (centres undefined)  %   -1.12

* * *

# METHOD DESCRIPTION: Toxicity liver stage against HepG2, at 10uM
# Type: cell-based
# Set-up: test concentration 10 uM, cell line HepG2-A16-CD81EGFP
# CONDITION CONTEXT: human, HepG2-A16-CD81EGFP cells; read-out: INHIBITION
PROPERTY MEASURED: cytotoxicity at 10 µM (%)

                                    compound    val
 0  CN(C)C(=O)N1CCC2(CC1)CN(Cc1ccccn1)C(=O)CO2   2.99
 1  O=C(c1cc(F)cc(Cl)c1)N1CCN(CCO)[C@@H]2CS(=O)(=O)C[C@@H]21  -2.24
 2  CN(CC1(O)CCCN(c2ccccn2)C1)C(=O)CCc1cccs1 (centres undefined)  -26.9
 3        CCN1CCC2(CCC(=O)N2Cc2cccc(C)n2)CC1   5.08
 4    NC(=O)CCN(CC(=O)NCc1ccccn1)c1ccc(F)cc1   7.98
 5              CCN(CC)CCn1ccnc1-c1cccc(O)c1  -5.13
 6  Cc1cc(N2CCC(Cc3ccncc3)C2)ncn1 (centres undefined)  0.328
 7  N#Cc1cccc(CN(CC(=O)N2CCCC2)CC2CCCO2)c1 (centres undefined)  -5.52
 8  O=C(NCCCn1cncn1)N1CCCC(N2CCCC2)C1 (centres undefined)  -2.66
 9        CCc1ncc(CN2CCC(Oc3ccccc3OC)CC2)cn1  -8.17
10  CC(C)CCN1CCc2cc(C(=O)N(C)C)c(NCC3CC3)nc2CC1   4.71
11  CN(Cc1cnc(N)nc1)C(=O)C1CC(=O)N(Cc2ccncc2)C1 (centres undefined)      0
12        CCCn1c(NC(=O)CNC(=O)OCC)nc2ccccc21  -4.41
13    CCn1cc(-n2cc3nc(N(C)C)[nH]cc-3c2=O)cn1   10.2
14  CCOC(=O)c1ccc(Nc2ccc(OC)c(N3CCCC3=O)c2)nc1   8.46
15  O=C(c1cn(-c2cc(N3CCOCC3)ncn2)cn1)N1CCSCC1  -18.3
16  CCc1[nH]ncc1C(=O)N1CCCC(n2ccnc2C(C)C)C1 (centres undefined)   2.43
17  Cn1cc(Br)c(=O)c(NS(=O)(=O)c2ccc(Cl)cc2)c1  -5.28
18  Cc1ccn(CCC(=O)N2CCCC(Cc3cccnc3)C2)n1 (centres undefined)  -4.47
19  Cc1nsc(NC2CCOC3(CCCC3)C2)n1 (centres undefined)   8.85
20  CC(C)CN(CC(C)C)Cn1ncc2cn(-c3ccccc3)nc2c1=O   1.42
21  CC(c1ncc(C(C)(C)C)o1)N1CCN(Cc2ccncc2)CC1 (centres undefined)  -12.3
22   Cc1nc(-c2cnn(C)c2)sc1C(=O)NCc1ccc(C)n1C   9.25
23  Cc1cccnc1C(Nc1nccc(C2CCCC2)n1)C1CC1 (centres undefined)   -121

* * *

# METHOD DESCRIPTION: Toxicity liver stage against HepG2, at 10uM
# Assay type: cell-based
# Parameters: test concentration 10 uM, cell line HepG2-A16-CD81EGFP
# CONDITION CONTEXT: human, HepG2-A16-CD81EGFP cells; read-out: INHIBITION
PROPERTY MEASURED: cytotoxicity at 10 µM (%)

>>> print(df.to_string())
                                    compound      property_measured     val
 0  CCO[C@H]1CO[C@@]2(CCCN(S(=O)(=O)c3ccccc3)C2)C1  cytotoxicity at 10 µM    4.42
 1        Cn1cnc2c1CCN(Cc1nc(-c3ccco3)no1)C2  cytotoxicity at 10 µM   0.887
 2  Cc1nc(CN2CCOC(Cn3cncn3)C2)nc2ccccc12 (centres undefined)  cytotoxicity at 10 µM  -0.241
 3  CC(=O)N(Cc1noc(C)n1)C1CCN(Cc2ncc(C(C)C)o2)C1 (centres undefined)  cytotoxicity at 10 µM   -13.2
 4  CC(C)N(Cc1ccccn1)Cc1nc2c(cnn2C)c(=O)[nH]1  cytotoxicity at 10 µM   -6.42
 5  Cc1cnn(CC2CN(CC(=O)N(C)Cc3ccsc3)CCO2)c1 (centres undefined)  cytotoxicity at 10 µM   -10.6
 6  CCOCC1CC2(CCN(C(=O)c3ccccn3)CC2)CO1 (centres undefined)  cytotoxicity at 10 µM   -3.76
 7  CC(=O)N1CCN(C(=O)NC(C)C)CC2(CC(=O)N(C)C2)C1 (centres undefined)  cytotoxicity at 10 µM   -4.13
 8  CC(C(=O)NCCOc1ccc(F)cc1)n1cncn1 (centres undefined)  cytotoxicity at 10 µM   -1.46
 9  Cc1cccc(N2CCN(CCC(=O)NCc3cnc(C)cn3)CC2)c1  cytotoxicity at 10 µM   -1.48
10  CCCn1nc(C)c(CN2CC3(CCOC3)CCC2=O)c1C (centres undefined)  cytotoxicity at 10 µM    4.28
11    O=C(Nc1ccc(Cl)cn1)C1CCN(CCc2ccccn2)CC1  cytotoxicity at 10 µM   -6.55
12     CCSc1cc(C(=O)NCc2ccc(C(=O)NC)cc2)ccn1  cytotoxicity at 10 µM    32.6
13        Cc1ccc(Cn2c(=O)[nH]c3csnc3c2=O)cc1  cytotoxicity at 10 µM    2.93
14             Cc1cc(NC(=O)c2ccccc2Br)n(C)n1  cytotoxicity at 10 µM   -6.61
15            CCOC(=O)CCCc1ccc2c(c1)CC(=O)N2  cytotoxicity at 10 µM    1.23
16  O=C(CCn1ccc(=O)[nH]c1=O)N1CCC(Oc2ccccn2)CC1  cytotoxicity at 10 µM   -1.47
17  CCN(CC1CCCN(CCc2cccc(OC)c2)C1)C(=O)CSC (centres undefined)  cytotoxicity at 10 µM    8.76
18  c1cc(CNCC2CNc3ccnn3C2)cc(OC2CCCC2)n1 (centres undefined)  cytotoxicity at 10 µM   -3.02
19  Cn1cc(CN2CCCN(C(=O)c3ccc4ccccc4n3)CC2)cn1  cytotoxicity at 10 µM    -1.9
20  CCOc1ccc(Cl)c(C(=O)N2CCN(CC(C)(C)O)CC2)n1  cytotoxicity at 10 µM   -5.72
21  O=C1N(CCCc2ccccc2)CCCC1(O)CNCc1ccccc1 (centres undefined)  cytotoxicity at 10 µM    10.4
22  COCCC(=O)N1CCC2(CCN(Cc3ccc(OC)c(F)c3)C2)C1 (centres undefined)  cytotoxicity at 10 µM    9.75
23  FC1(F)CCN(Cc2ccccn2)CC12CCN(c1cnccn1)C2 (centres undefined)  cytotoxicity at 10 µM    -108
